# IC50 listing for each entry below
target-or-test-system: BTK (Homo sapiens (Human), UniProt Q06187)
Sequence (Q06187 whole entry): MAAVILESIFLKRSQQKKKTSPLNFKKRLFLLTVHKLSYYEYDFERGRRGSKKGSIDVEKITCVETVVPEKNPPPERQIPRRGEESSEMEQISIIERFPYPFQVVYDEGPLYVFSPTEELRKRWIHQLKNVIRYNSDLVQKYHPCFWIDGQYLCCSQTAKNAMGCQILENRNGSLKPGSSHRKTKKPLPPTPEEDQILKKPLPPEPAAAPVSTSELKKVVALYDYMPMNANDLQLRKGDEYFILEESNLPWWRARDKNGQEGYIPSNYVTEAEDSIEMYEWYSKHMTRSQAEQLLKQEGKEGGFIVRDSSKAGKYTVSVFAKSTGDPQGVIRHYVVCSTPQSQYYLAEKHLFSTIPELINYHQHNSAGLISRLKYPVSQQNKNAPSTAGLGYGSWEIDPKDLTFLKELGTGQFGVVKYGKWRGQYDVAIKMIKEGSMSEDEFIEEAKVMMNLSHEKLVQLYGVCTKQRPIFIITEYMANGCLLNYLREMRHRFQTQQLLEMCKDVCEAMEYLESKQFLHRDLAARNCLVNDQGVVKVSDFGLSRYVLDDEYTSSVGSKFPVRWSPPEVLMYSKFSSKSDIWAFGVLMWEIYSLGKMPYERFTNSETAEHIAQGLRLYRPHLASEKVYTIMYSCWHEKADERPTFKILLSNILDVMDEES
experiment-summary: Btk in vitro inhibitory activity (one of Method A TR-FRET, Method B electrophoretic mobility shift, Method C radiometric filter binding)
Format: biochemical
condition: read-out: Btk (IC50)

# count of solved cases: 6
# structure-smiles, IC50
rows = [
    ("COc1ccc(C(=O)N[C@@H]2CCCN(c3cnc(C(N)=O)c(Nc4ccc(-n5ccccc5=O)cc4)n3)C2)cc1", "10 to 100 nM"),
    ("COc1ccc(C(=O)N[C@@H]2CCCN(c3cnc(C(N)=O)c(Nc4ccc(C(=O)N(C)C)cc4)n3)C2)cc1", "10 to 100 nM"),
    ("CN1CCN([C@@H]2CCCN(c3cnc(C(N)=O)c(Nc4ccc(C5(C)CCN(C6CCCC6)CC5)cc4)n3)C2)C1=O", "< 10 nM"),
    ("COc1ccc(C(=O)N[C@@H]2CCCN(c3cnc(C(N)=O)c(Nc4ccc(C5CCN(C(C)=O)CC5)cc4)n3)C2)cc1", "< 10 nM"),
    ("Cc1ncc(C(=O)N[C@@H]2CCCN(c3nnc(C(N)=O)c(Nc4ccc(C(=O)N5CCOCC5)cc4)n3)C2)s1", "< 10 nM"),
    ("C[C@@H]1[C@H](NC(=O)N(C)C)CCCN1c1cnc(C(N)=O)c(Nc2ccc(C3CCN(C4CCC4)CC3)cc2)n1", "< 10 nM"),
]

Proceeding to the next molecule to report its IC50.
[in] State measured IC50 of the molecule COc1ccc(C(=O)N[C@@H]2CCCN(c3cnc(C(N)=O)c(Nc4ccc5ncccc5c4)n3)C2)cc1 with BTK (Homo sapiens (Human), UniProt Q06187).
[out] 10 to 100 nM

###

target-or-test-system: UniProt:Q06187
experiment-summary: Btk in vitro inhibitory activity (one of Method A TR-FRET, Method B electrophoretic mobility shift, Method C radiometric filter binding)
Type: biochemical
condition: determined using one of the methods of Example 355a, 355b and 355c; read-out: BTK IC50
pIC50: −log10 of the molar value.
metric-name: pIC50

# count of solved cases: 4
# structure-smiles, value
measured = [
    ("NC(=O)c1nnc(N2CCC[C@@H](n3ccc4cc(C5CC5)cc(F)c4c3=O)C2)nc1Nc1ccc(C(=O)N2CCOCC2)cc1", "> 8.00"),
    ("C[C@@H]1[C@H](NC(=O)N(C)C)CCCN1c1cnc(C(N)=O)c(Nc2ccc(C3(C(F)(F)F)CC3)cc2)n1", "> 8.00"),
    ("COCCOc1ccc(Nc2nc(N3CCC[C@@H](NC(=O)c4ccc(OC)cc4)C3)cnc2C(N)=O)cc1", "7.00 to 8.00"),
    ("NC(=O)c1nnc(N2CCC[C@@H](NC(=O)c3ncccn3)C2)nc1Nc1ccc(C(=O)N2CCOCC2)cc1", "7.00 to 8.00"),
]

[in] // Input: CC(C)(C)c1ccc(C(=O)N[C@@H]2CCCN(c3cnc(C(N)=O)c(Nc4ccc(C(=O)N5CCOCC5)cc4)c3)C2)cc1 . Output its pIC50 only.
[out] 6.00 to 7.00

[in] // Input: CC(C)(C)c1ccc(C(=O)N[C@@H]2CCCN(c3nnc(C(N)=O)c(Nc4ccc(-c5ncco5)cc4)n3)C2)cc1 . Output its pIC50 only.
[out] 7.00 to 8.00
